Test system: HEK293 cells
Assay: Cell viability assay (MTT method)
Format: cell-based
Conditions: compound 20 μM, percentage of viable LPS-stimulated cells
Quantity: Cell viability (%) Average
Note: state the figure and append the unit.

Qu. State recorded Cell viability (%) Average with HEK293 cells, entry COc1ccc2c(c1)[C@]13CCCC[C@@H]1[C@H](C2)N(CC(O)COc1ccccc1)CC3 (stereo partly drawn) [Compound 11] , no comment.
Ans. 88.8%

Qu. State recorded Cell viability (%) Average with HEK293 cells, entry COc1ccc2c(c1)[C@]13CCCC[C@@H]1[C@H](C2)N(c1ccc(NC(=O)CCCc2ccccc2)cc1)CC3 [Compound 8] , no comment.
Ans. 104.7%

Qu. State recorded Cell viability (%) Average with HEK293 cells, entry O=[N+]([O-])c1ccc(N2CC[C@@]34CCCC[C@@H]3[C@@H]2Cc2ccc(O)cc24)nc1 [Compound 24] , no comment.
Ans. 103.3%
